Cited source: patent US20260250289A1

molecular target: WRN helicase (aa N517-P1238) (Homo sapiens); construct: The core helicase motif of the WRN protein (aa N517-P1238) was produced for this assay; His (N); ZZ (N); 3C protease cleavage site (N); virus and BIICs made in SF9); assay: WRN ATPase assay (DNA dependent ATP hydrolysis, ADP-Glo); conditions: 3 hours pre-incubation, 300 micromolar ATP, FLAP26 DNA; geometric mean of at least 2
Sequence (Q14191 517-1238): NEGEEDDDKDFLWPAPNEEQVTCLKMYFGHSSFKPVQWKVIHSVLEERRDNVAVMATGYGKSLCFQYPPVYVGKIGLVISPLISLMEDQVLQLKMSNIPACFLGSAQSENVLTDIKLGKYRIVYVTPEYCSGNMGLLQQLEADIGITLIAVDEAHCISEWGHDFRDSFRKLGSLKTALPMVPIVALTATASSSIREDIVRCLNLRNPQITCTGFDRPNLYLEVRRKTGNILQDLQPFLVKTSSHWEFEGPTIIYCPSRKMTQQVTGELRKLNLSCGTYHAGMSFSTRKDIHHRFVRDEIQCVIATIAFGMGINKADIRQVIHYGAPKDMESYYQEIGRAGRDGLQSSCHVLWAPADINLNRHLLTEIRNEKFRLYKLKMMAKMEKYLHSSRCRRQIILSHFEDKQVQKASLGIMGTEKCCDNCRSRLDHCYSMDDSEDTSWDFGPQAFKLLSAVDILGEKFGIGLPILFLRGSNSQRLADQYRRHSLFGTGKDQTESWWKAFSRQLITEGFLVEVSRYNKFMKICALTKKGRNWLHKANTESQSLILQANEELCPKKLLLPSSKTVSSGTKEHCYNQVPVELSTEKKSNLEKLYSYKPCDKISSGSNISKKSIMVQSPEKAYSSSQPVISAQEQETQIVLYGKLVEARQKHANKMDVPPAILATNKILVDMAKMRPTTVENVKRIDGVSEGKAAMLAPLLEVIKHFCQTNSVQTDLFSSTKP
pIC50: −log10 of the molar value.
Recorded endpoint: pIC50

[P] CCc1c(N2CCN(C(C)=O)CC2)c(=O)n2nc(C3=CCOCC3)nc2n1CC(=O)Nc1ccc(C(F)(F)F)cc1Cl
[Q] CCc1c(N2CCN(C(=O)c3ncc(F)c4cc[nH]c34)CC2)c(=O)n2nc(C3=CCOCC3)nc2n1CC(=O)Nc1ccc(C(F)(F)F)cc1C
Exam item: I would appreciate it if you could say which entry, P or Q , has the lower pIC50 value. State your choice using its label.
Marked response: Q
(Q: 6.22, P: 6.52)
